- System: human skin tissue
- measurement_conditions: pH 7.4
As shown below, each of these compounds has a reported In vitro penetration rate (apparent flux), prodrug compounds value.
observable: In vitro penetration rate (apparent flux), prodrug compounds (μg/cm^2/h)

>  <compound>
CC(=O)O.CCN(CC)CCOC(=O)c1ccccc1Nc1c(Cl)ccc(C)c1Cl

>  <measure_unit>
μg/cm^2/h

>  <quantitative_readout>
2000

$$$$
>  <compound>
CC(=O)O.CCN(CC)CCOC(=O)CCc1nc(-c2ccccc2)c(-c2ccccc2)o1

>  <measure_unit>
μg/cm^2/h

>  <quantitative_readout>
4000

$$$$
>  <compound>
CC(=O)O.CCN(CC)CCOC(=O)C1CCn2c(C(=O)c3ccccc3)ccc21 (stereo not shown)

>  <measure_unit>
μg/cm^2/h

>  <quantitative_readout>
3800

$$$$
>  <compound>
CC(=O)O.CCN(CC)CCOC(=O)Cc1sc(-c2ccccc2)nc1-c1ccc(Cl)cc1

>  <measure_unit>
μg/cm^2/h

>  <quantitative_readout>
1300

$$$$

The measured values listed here are drawn from patent US20210353579A1.
